Biological target: human μ-opiate receptor (Homo sapiens, UniProt P35372)
Construct: purchased PerkinElmer Life Sciences, Zaventem, Belgium RB-HOM; host or cells: CHO-K1 cells (membrane preparation)
Sequence (P35372 whole entry): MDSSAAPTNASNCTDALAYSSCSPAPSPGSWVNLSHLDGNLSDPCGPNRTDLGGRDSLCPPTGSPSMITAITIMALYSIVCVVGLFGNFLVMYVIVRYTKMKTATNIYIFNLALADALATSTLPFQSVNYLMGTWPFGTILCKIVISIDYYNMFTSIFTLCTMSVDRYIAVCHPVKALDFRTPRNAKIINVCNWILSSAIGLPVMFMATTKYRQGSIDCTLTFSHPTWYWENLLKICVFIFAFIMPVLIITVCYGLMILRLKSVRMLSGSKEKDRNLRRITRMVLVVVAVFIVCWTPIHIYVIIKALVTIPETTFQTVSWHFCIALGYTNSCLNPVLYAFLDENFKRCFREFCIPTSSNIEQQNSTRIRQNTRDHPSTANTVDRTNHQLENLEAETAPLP
Assay: Affinity for the human μ-opiate receptor ([3H]-naloxone displacement, SPA)
Details: test substance 1 μmol/l; inhibition of specific [3H]-naloxone binding; CHO-K1 receptor membrane preparation; read-out: μ-Opioid receptor [1 μM] % inhibition
Below is a list of entries, each paired with its recorded inhibition at 1 µM value.

# compound, inhibition at 1 µM [%]
measured = [
    ("O=C(CC1C(=O)Nc2ccccc2N1S(=O)(=O)c1ccc(Cl)c(Cl)c1)NC1CCC(C(c2ccccc2)N2CCOCC2)CC1 (stereo not shown)", 12),
    ("CN(C)C(c1ccccc1)C1CCC(CNC(=O)CC2CCCCN2S(=O)(=O)c2cccc(C(F)(F)F)c2)CC1 (stereo not shown)", 94),
    ("O=C(CC1C(=O)Nc2ccccc2N1S(=O)(=O)c1ccc(Cl)c(Cl)c1)NC1CCC(C(CCc2ccccc2)N2CCOCC2)CC1 (stereo not shown)", 7),
    ("Cc1cc(S(=O)(=O)N2CCCCC2CCC(=O)N2CCC(C(c3cccc(F)c3)N3CCN(C)CC3)CC2)c(C)cc1Cl (stereo not shown)", 41),
    ("O=C(CC1C(=O)Nc2ccccc2N1S(=O)(=O)c1ccc(Cl)c(Cl)c1)NC1CCC(C(CCc2ccccc2)N2CCCCC2)CC1 (stereo not shown)", 30),
    ("O=C1Nc2ccccc2N(S(=O)(=O)c2ccc(Cl)c(Cl)c2)C1CC(=O)N1CCC(C(c2ccccc2)N2CCOCC2)CC1 (stereo not shown)", 12),
    ("O=C1Nc2ccccc2N(S(=O)(=O)c2ccc(Cl)c(Cl)c2)C1CC(=O)N1CCC(C(Cc2ccccc2)N2CCOCC2)CC1 (stereo not shown)", 26),
]
